Target: Human Erythrocyte Pyruvate Kinase (R-PK) (Homo sapiens, UniProt P30613)
Construct: The four units of human whole blood obtained from the Blood Bank
Sequence (P30613 whole entry): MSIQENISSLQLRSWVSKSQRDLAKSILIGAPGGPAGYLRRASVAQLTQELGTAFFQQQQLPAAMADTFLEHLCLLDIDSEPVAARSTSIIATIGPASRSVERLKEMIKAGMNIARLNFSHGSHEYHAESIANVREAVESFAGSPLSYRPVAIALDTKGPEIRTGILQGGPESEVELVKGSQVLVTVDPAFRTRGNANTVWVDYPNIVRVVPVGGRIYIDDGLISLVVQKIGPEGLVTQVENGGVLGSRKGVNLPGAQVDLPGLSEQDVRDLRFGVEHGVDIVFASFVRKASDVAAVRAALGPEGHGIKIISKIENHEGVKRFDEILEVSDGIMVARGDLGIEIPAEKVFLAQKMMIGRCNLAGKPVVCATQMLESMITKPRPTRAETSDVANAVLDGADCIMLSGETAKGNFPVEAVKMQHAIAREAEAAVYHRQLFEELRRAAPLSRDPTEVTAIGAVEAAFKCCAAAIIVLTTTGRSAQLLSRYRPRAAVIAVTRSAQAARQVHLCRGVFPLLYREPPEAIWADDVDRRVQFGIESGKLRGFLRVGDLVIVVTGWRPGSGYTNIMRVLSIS
Test: PK activity assay coupled with lactate dehydrogenase (NADH oxidation at 340 nm)
Conditions: stock solutions in DMSO; dose-response of FIG. 6; read-out: IC50 (R-PK inhibition)
Result Type: IC50 (µM)
Numeric answer only, unit µM assumed.

Field request: IC50 | item: COC(=O)c1cc(Oc2ccc(C(=O)OC)cc2NC(=O)NC2CCCCC2)cc(C(=O)OC)c1
9.4

# query: IC50 of entry COC(=O)c1cc(Oc2ccc(C(=O)OC)cc2NC(=O)c2cc(Cl)cc(Cl)c2)cc(C(=O)OC)c1
9

State the recorded IC50 for this entry: O=c1oc(Nc2ccc(Cl)cc2)nc2ccccc12
20.9

If you can, please state the reported IC50 value of Cc1cccc2nc3cccc(C(=O)Nc4ccccc4C(=O)O)c3nc12 .
8.9

Look up IC50: CCc1nc2ccccc2c(=O)n1CCc1cn(COC(=O)CCl)c2ccccc12
12.1

Entry COC(=O)c1sc(-c2ccc(Cl)cc2)cc1NCc1ccccc1 : reported IC50 = ?
16.9
